species: Rattus norvegicus; assay: Stimulation of prostate weight in castrated immature Sprague-Dawley rat; format: functional, Prostate gland
property-label: ED50 (mg/day)

compound	relation-sign	measured-result
CCN1N=C(C(F)(F)F)C[C@@]1(C)C(=O)Nc1ccc(C#N)c(C(F)(F)F)c1	=	2.2
CCO/C(=N\c1ccc(C#N)c(C(F)(F)F)c1)[C@]1(C)CC(C(F)(F)F)=NN1	>	3
CCN1N=C(C(F)(F)F)C[C@]1(C)C(=O)Nc1ccc(C#N)c(C(F)(F)F)c1	>	3
C[C@@]1(C(=O)Nc2ccc(C#N)c(C(F)(F)F)c2)CC(C(F)(F)F)=NN1	=	0.76
CCC(=O)O[C@H]1CC[C@H]2[C@@H]3CCC4=CC(=O)CC[C@]4(C)[C@H]3CC[C@]12C [TESTOSTERONE PROPIONATE]	=	0.1
CCO/C(=N\c1ccc(C#N)c(C(F)(F)F)c1)[C@@]1(C)CC(C(F)(F)F)=NN1	=	0.16
C[C@]1(C(=O)Nc2ccc(C#N)c(C(F)(F)F)c2)CC(C(F)(F)F)=NN1	=	0.94

---

The following compounds are listed with their measured Activity values.
system: Rattus norvegicus; assay: Stimulation of prostate weight in castrated immature Sprague-Dawley rat at 2 mg/day, po after 5 days; assay type: functional, Prostate gland

compound	unit-spec	relation-sign	Activity
CC(=O)Nc1ccc(CC2=NNC(C)(C(=O)Nc3ccc(C#N)c(C(F)(F)F)c3)C2)cc1 (stereo not given)	%	=	24
CC(C)(C)C1=NNC(C)(C(=O)Nc2ccc(C#N)c(C(F)(F)F)c2)C1 (stereo not given)	%	<	10
CC1(C(=O)Nc2ccc([N+](=O)[O-])c(C(F)(F)F)c2)CC(c2ccc(F)cc2)=NN1 (stereo not given)	%	<	10
CC1(C(=O)Nc2cc(C(F)(F)F)c(C#N)cc2C#N)CC(C(F)(F)F)=NN1 (stereo not given)	%	<	10
CC(C)C1=NNC(C)(C(=O)Nc2ccc(C#N)c(C(F)(F)F)c2)C1 (stereo not given)	%	<	10
CCO/C(=N\c1ccc(C#N)c(C(F)(F)F)c1)C1(C)CC(C(F)(F)F)=NN1 (stereo not given)	%	=	22
CCN1N=C(C(F)(F)F)CC1(C)C(=O)Nc1ccc(C#N)c(C(F)(F)F)c1 (stereo not given)	%	=	47
CN1N=C(C(F)(F)F)CC1(C)C(=O)Nc1ccc(C#N)c(C(F)(F)F)c1 (stereo not given)	%	<	10
CC1(C(=O)Nc2ccc(Cl)c(Cl)c2)CC(C(F)(F)F)=NN1 (stereo not given)	%	=	10
CCC1(C(=O)Nc2ccc(C#N)c(C(F)(F)F)c2)CC(C(F)(F)F)=NN1 (stereo not given)	%	=	24

---

test system: Rattus norvegicus; assay: Stimulation of prostate weight in castrated immature Sprague-Dawley rat at 2 mg/day, po after 5 days; format: functional, Prostate gland

molecule	relation-sign	Activity [%]
N#Cc1ccc(NC(=O)C2(C(F)(F)F)CC(C(F)(F)F)=NN2)cc1C(F)(F)F (centres undefined)	=	13
CC1(C(=O)Nc2ccc(C#N)c(C(F)(F)F)c2)CC=NN1 (centres undefined)	<	10
CC(=O)Nc1cccc(C2=NNC(C)(C(=O)Nc3ccc(C#N)c(C(F)(F)F)c3)C2)c1 (centres undefined)	<	10
CC1(C(=O)Nc2cc(C(F)(F)F)c(C#N)cc2Cl)CC(C(F)(F)F)=NN1 (centres undefined)	=	15
CC(=O)Nc1ccc(C2=NNC(C)(C(=O)Nc3ccc(C#N)c(C(F)(F)F)c3)C2)cc1 (centres undefined)	=	16
CCc1c(NC(=O)C2(C)CC(C(F)(F)F)=NN2)ccc(C#N)c1C(F)(F)F (centres undefined)	=	14
CC(=O)Nc1ccc(C2=NNC(C)(C(=O)Nc3ccc(C#N)c(C#N)c3)C2)cc1 (centres undefined)	<	10
CC1(C(=O)Nc2ccc(C#N)c(C(F)(F)F)c2)CC(CC(F)(F)F)=NN1 (centres undefined)	<	10
CC1(C(=O)Nc2ccc(C#N)c(C(F)(F)F)c2)CC(C(F)(F)F)=NN1 (centres undefined)	=	28
